# Subject of test: USP7, full-length, native C-Terminus (Homo sapiens, UniProt Q93009)
# Construct: USP7, full-length, native C-Terminus, 0.2 nM
# Sequence (Q93009 whole entry): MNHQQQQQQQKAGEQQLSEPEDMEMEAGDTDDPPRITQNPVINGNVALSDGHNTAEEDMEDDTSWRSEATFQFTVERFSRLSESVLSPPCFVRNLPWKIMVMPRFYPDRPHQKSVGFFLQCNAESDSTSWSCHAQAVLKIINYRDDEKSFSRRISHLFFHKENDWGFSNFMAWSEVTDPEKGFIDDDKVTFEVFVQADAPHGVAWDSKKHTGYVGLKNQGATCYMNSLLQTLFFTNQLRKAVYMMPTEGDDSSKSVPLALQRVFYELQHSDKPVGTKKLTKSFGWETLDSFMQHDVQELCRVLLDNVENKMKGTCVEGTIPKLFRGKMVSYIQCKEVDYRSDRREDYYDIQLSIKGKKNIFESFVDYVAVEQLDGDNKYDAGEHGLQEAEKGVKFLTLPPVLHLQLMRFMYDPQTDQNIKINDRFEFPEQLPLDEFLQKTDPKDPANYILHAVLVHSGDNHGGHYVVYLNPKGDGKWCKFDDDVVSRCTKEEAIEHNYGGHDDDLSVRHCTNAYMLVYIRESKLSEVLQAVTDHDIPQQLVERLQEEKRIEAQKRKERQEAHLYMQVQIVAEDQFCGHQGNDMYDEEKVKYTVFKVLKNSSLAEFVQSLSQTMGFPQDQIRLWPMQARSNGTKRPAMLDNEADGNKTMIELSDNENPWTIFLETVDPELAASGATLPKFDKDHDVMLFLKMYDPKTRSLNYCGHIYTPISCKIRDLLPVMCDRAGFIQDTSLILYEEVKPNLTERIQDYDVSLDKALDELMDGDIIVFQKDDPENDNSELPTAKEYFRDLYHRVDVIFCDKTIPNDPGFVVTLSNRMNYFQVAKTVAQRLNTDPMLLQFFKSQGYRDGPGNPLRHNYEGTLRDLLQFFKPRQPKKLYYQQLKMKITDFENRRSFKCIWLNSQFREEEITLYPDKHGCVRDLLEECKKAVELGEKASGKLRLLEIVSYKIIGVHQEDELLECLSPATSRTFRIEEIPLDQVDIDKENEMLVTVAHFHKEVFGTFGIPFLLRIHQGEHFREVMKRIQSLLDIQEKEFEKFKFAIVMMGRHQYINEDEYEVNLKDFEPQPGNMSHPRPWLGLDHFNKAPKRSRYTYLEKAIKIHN
# Protocol description: Biochemical USP7 assay with Ubiquitin-Rho110 substrate (USP7_Ub-Rho110 Fluor)
# Experimental parameters: no pre-incubation; 1 hour reaction at room temperature; read-out: USP7 Ub-Rho110 Fluor (IC50)
Reported metric: IC50

Recorded IC50 for CC(C)c1c(-c2ccc(O)cc2)cnc(N)c1-c1ccc(O)cc1 , please?
197 µM

Endpoint output: IC50 of CCc1c(-c2ccc(O)cc2F)cnc(N)c1-c1ccc(O)cc1 . Value?
4.5 µM

Quick one: IC50 for Nc1ncc(-c2ccc(O)cc2)c(C(F)(F)F)c1-c1ccc(O)cc1 ?
6 µM

Consider the molecule shown here: CCc1c(-c2ccc(O)cc2)cnc(N)c1-c1ccc(O)cc1 What is its recorded IC50?
3 µM

Would you mind telling me what IC50 value was observed for CCCc1c(-c2ccc(O)cc2)cnc(N)c1-c1ccc(O)cc1 ?
35.2 µM

# IC50 lookup, item COc1c(-c2ccc(O)cc2)cnc(N)c1-c1ccc(O)cc1
29.1 µM

# get_value(readout='IC50', item= CCc1c(-c2ccc(O)cc2)cnc(N)c1-c1ccc(O)cc1F )
> 20 µM

Reported IC50 for Cc1c(-c2ccc(O)cc2)cnc(N)c1-c1ccc(O)cc1 : what is it?
7.7 µM

May I ask what IC50 has been recorded for CCc1c(-c2cccc(NC(C)=O)c2)cnc(N)c1-c1ccc(O)cc1 ?
45 µM

Please report the recorded IC50 for Nc1ncc(-c2ccc(O)cc2)c(C2CC2)c1-c1ccc(O)cc1 .
56.6 µM

If you can, please state the reported IC50 value of CCc1c(-c2ccc(O)cc2)cnc(N)c1-c1ccc(OC)cc1F .
7.5 µM

Which IC50 value is on record for CCc1c(-c2cccc(CN(C)C)c2)cnc(N)c1-c1ccc(O)cc1 ?
23.9 µM

From: patent US9573899B2
